This collection of values is drawn from ChEMBL document CHEMBL3638691.

# assayed_target: Maternal embryonic leucine zipper kinase (Homo sapiens)
# Sequence (Q14680 whole entry): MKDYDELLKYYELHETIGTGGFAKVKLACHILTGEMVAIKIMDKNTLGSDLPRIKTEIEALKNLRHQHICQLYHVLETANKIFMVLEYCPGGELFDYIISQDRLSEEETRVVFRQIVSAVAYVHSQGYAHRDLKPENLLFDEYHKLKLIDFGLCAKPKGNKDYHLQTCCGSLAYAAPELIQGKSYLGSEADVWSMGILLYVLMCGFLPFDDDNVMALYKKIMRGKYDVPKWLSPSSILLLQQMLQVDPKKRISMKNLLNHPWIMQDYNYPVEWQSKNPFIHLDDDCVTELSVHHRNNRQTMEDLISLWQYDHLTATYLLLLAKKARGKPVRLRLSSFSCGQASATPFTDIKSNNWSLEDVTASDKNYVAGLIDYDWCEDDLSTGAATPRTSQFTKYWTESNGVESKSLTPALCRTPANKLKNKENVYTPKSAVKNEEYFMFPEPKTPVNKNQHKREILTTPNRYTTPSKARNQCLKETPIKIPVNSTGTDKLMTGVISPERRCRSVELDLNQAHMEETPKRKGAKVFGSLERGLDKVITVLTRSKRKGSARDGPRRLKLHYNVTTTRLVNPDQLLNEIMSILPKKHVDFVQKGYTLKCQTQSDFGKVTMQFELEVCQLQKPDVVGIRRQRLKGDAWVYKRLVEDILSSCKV
# protocol_text: Kinase Assay: MELK activity was determined in the presence or absence of compounds using fluorescein isothiocyanate-labeled (FITC-labeled) histone H3 peptide as a substrate. The extent of FITC-labeled histone H3 peptide phosphorylation was measured by immobilized metal ion affinity-based fluorescence polarization (IMAP) technology (Sportsman J R, et al., Assay Drug Dev. Technol. 2: 205-14, 2004) using IMAP FP Progressive Binding System (Molecular Devices Corporation). Test compounds were dissolved in DMSO at 12.5 mM and then serially diluted as the DMSO concentration in the assays to be 1%. The serially diluted compounds, 0.8 ng/micro-L PBK (Carna Biosciences) and 100 nM FITC-labeled histone H3 peptide were reacted in a reaction buffer (20 mM HEPES, 0.01% Tween-20, 0.3 mM MgCl2, 2 mM dithiothreitol, 50 micro-M ATP, pH 7.4) at room temperature for 1 hour. The reaction was stopped by the addition of three fold assay volume of progressive binding solution. Following 0.5 hour incubation at room temperature.
experimental_endpoint: log10 IC50 (log10 of the value in nM)
The common logarithm of IC50 in nM is what is listed.

Solved entries:
# compound, assayed_target, log10 IC50
rows = [
    ("CS(=O)(=O)c1cnc2ccc(-c3cc(Cl)c(O)c(Cl)c3)cc2c1Nc1cccc(CCN2CCCC2)c1", "Maternal embryonic leucine zipper kinase (Homo sapiens)", 0.30),
    ("CC(=O)c1cnc2ccc(-c3cc(Cl)c(O)c(Cl)c3)cc2c1Nc1ccc(S(=O)(=O)N2CCN(C)CC2)cc1", "Maternal embryonic leucine zipper kinase (Homo sapiens)", 1.56),
    ("CC(=O)c1cnc2ccc(-c3cc(Cl)c(O)c(Cl)c3)cc2c1N[C@H]1CC[C@H](NC(=O)[C@@H](N)C(C)(C)C)CC1", "Maternal embryonic leucine zipper kinase (Homo sapiens)", 0.62),
    ("O=C(c1cnc2ccc(-c3cc(Cl)c(O)c(Cl)c3)cc2c1N1CCC(CCN2CCCC2)CC1)C1CC1", "Maternal embryonic leucine zipper kinase (Homo sapiens)", 0.36),
]

So what does the record say about log10 IC50 for CC(=O)c1cnc2ccc(-c3cc(Cl)c(O)c(Cl)c3)cc2c1N[C@H]1CC[C@H](CN(C)C)CC1 ?
0.49

So what does the record say about log10 IC50 for CC(N)C(=O)N[C@H]1CC[C@H](Nc2c(C(=O)C(C)(C)C)cnc3ccc(-c4cc(Cl)c(O)c(Cl)c4)cc23)CC1 (some centres undefined) ?
1.18

So what does the record say about log10 IC50 for CC(=O)c1cnc2ccc(-c3cc(Cl)c(O)c(Cl)c3)cc2c1N[C@H]1CCC[C@@H](CN2CCN(C)CC2)C1 ?
0.43

So what does the record say about log10 IC50 for CC(=O)c1cnc2cc(C)c(-c3cc(Cl)c(O)c(Cl)c3)cc2c1N[C@H]1CC[C@H](CN2CCC(N)C2)CC1 (some centres undefined) ?
1.74

So what does the record say about log10 IC50 for CN(C)C[C@H]1CC[C@H](Nc2c(C(=O)C(C)(C)C)cnc3ccc(-c4cc(Cl)c(O)c(Cl)c4)cc23)CC1 ?
1.34
